Assay: Cytotoxicity against human NFF cells at 50 uM after 3 days by sulforhodamine B assay
Assay type: cell-based
Conditions: read-out: INH
Collected cytotoxicity at 72 h, 50 µM values appear next to each entry.

{"molecule": "COc1cc(OC)c2c(c1OC)O[C@H]1c3c(OC)cc(OC)c(OC)c3O[C@H](c3ccc(C)cc3)[C@H]1[C@@H]2/C=C/c1ccc(C)cc1", "cytotoxicity at 72 h, 50 µM (%)": 47.2}
{"molecule": "COc1cc(OC)c2c(c1OC)O[C@H]1c3c(OC)cc(OC)c(OC)c3O[C@H](c3ccccc3)[C@H]1[C@@H]2/C=C/c1ccccc1 [DEPENDENSIN]", "cytotoxicity at 72 h, 50 µM (%)": 46.9}
{"molecule": "COc1ccc(/C=C/[C@@H]2c3c(OC)cc(OC)c(OC)c3O[C@H]3c4c(OC)cc(OC)c(OC)c4O[C@H](c4ccc(OC)cc4)[C@@H]23)cc1", "cytotoxicity at 72 h, 50 µM (%)": 43.2}
{"molecule": "COc1cc(OC)c2c(c1OC)O[C@H]1c3c(OC)cc(OC)c(OC)c3O[C@H](c3ccc(Br)cc3)[C@H]1[C@@H]2/C=C/c1ccc(Br)cc1", "cytotoxicity at 72 h, 50 µM (%)": 46.3}
{"molecule": "COc1cc(OC)c2c(c1OC)O[C@H]1c3c(OC)cc(OC)c(OC)c3O[C@H](c3ccc(Cl)cc3)[C@H]1[C@@H]2/C=C/c1ccc(Cl)cc1", "cytotoxicity at 72 h, 50 µM (%)": 98.4}
